Reference for the values: the supplement of paper PMC7125110

B1: glmS ribozyme (parent)
chain: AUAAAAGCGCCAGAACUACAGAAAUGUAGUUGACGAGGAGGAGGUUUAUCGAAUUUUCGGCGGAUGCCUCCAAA

- Variants of: B1
- test_name: self-cleavage kobs at 2500 uM GlcN6P; higher = faster cleavage; RNA array
- test_conditions: with glucosamine-6-phosphate
Variants at the floor of the assay were thinned out.
self-cleavage kobs at 2500 uM GlcN6P values, listed per item
property: self-cleavage kobs at 2500 uM GlcN6P

>>> experimental_result("G7C G35C A48C C58U")
"< 1e-05 s⁻¹"
>>> experimental_result("G40A A42G U46A")
"0.000599 s⁻¹"
>>> experimental_result("A42U A48U A64U C68U")
"< 1e-05 s⁻¹"
>>> experimental_result("G9U C34A G35C G43U")
"< 1e-05 s⁻¹"
>>> experimental_result("C10G G29A G62U C71U")
"< 1e-05 s⁻¹"
>>> experimental_result("A12G U54A")
"0.000221 s⁻¹"
>>> experimental_result("G9A C61A")
"< 1e-05 s⁻¹"
>>> experimental_result("G41C A53G")
"0.000193 s⁻¹"
>>> experimental_result("G13A A33C C70U")
"< 1e-05 s⁻¹"
>>> experimental_result("G35U U65G")
"< 1e-05 s⁻¹"
>>> experimental_result("G41U C68U U69C")
"< 1e-05 s⁻¹"
>>> experimental_result("C34U U56G")
"< 1e-05 s⁻¹"
>>> experimental_result("A52U G59U A64U C70U")
"< 1e-05 s⁻¹"
>>> experimental_result("U55G C58G G60U")
"< 1e-05 s⁻¹"
>>> experimental_result("U49G C71U")
"0.00041 s⁻¹"
>>> experimental_result("G32U G40A")
"0.000131 s⁻¹"
>>> experimental_result("G9A G29C G35A G44U U46A A64C")
"< 1e-05 s⁻¹"
>>> experimental_result("A36G U55C C67U")
"< 1e-05 s⁻¹"
>>> experimental_result("A14C A39C C71U")
"4.93e-05 s⁻¹"
>>> experimental_result("A15U G29C")
"0.000809 s⁻¹"
>>> experimental_result("U49G U56C")
"0.000127 s⁻¹"
>>> experimental_result("C8A G40U")
"< 1e-05 s⁻¹"
>>> experimental_result("C10U G40A G44C C70A")
"< 1e-05 s⁻¹"
>>> experimental_result("A36C A48G C70G")
"< 1e-05 s⁻¹"
>>> experimental_result("C8U A12C G43C U49C")
"< 1e-05 s⁻¹"
>>> experimental_result("U31G U55C")
"0.00461 s⁻¹"
>>> experimental_result("U30G U55G C68U")
"7.82e-05 s⁻¹"
>>> experimental_result("C8G G29U A36C A48G C70U")
"< 1e-05 s⁻¹"
>>> experimental_result("A42C A48U G66C")
"< 1e-05 s⁻¹"
>>> experimental_result("A42U U55A G60U G63C")
"< 1e-05 s⁻¹"
>>> experimental_result("U65A U69G")
"8.3e-05 s⁻¹"
>>> experimental_result("G60C G63A")
"< 1e-05 s⁻¹"
>>> experimental_result("C11U G35U G44A")
"< 1e-05 s⁻¹"
>>> experimental_result("U56A U65A")
"0.000569 s⁻¹"
>>> experimental_result("A6G G13C")
"< 1e-05 s⁻¹"
>>> experimental_result("A14G G66U")
"0.00287 s⁻¹"
>>> experimental_result("A12G C34U A52U")
"< 1e-05 s⁻¹"
>>> experimental_result("A53C G66A")
"0.00288 s⁻¹"
>>> experimental_result("G9A")
"1.33e-05 s⁻¹"
>>> experimental_result("A12U G29U U30A U31A")
"0.000126 s⁻¹"
>>> experimental_result("G9A G62U G66U")
"< 1e-05 s⁻¹"
>>> experimental_result("G40A C71G")
"0.00373 s⁻¹"
>>> experimental_result("C61A G66C")
"< 1e-05 s⁻¹"
>>> experimental_result("U49G U55G")
"0.000582 s⁻¹"
>>> experimental_result("A15C C34G U57A")
"< 1e-05 s⁻¹"
>>> experimental_result("A6C G13A A36U U56G")
"< 1e-05 s⁻¹"
>>> experimental_result("G13U A15U C70U")
"7.46e-05 s⁻¹"
>>> experimental_result("G13C G37A G62A")
"< 1e-05 s⁻¹"
>>> experimental_result("C11A C34G A36U G40A A52G A53U")
"< 1e-05 s⁻¹"
>>> experimental_result("U45C U54C")
"0.00105 s⁻¹"
>>> experimental_result("G44U A52C")
"< 1e-05 s⁻¹"
>>> experimental_result("G60A C70U")
"1.93e-05 s⁻¹"
>>> experimental_result("A33C G40A A52U C61G")
"< 1e-05 s⁻¹"
>>> experimental_result("A14U G40C")
"0.000391 s⁻¹"
>>> experimental_result("G7U A15C A36U U47C")
"< 1e-05 s⁻¹"
>>> experimental_result("U54G A64C C67A C70U")
"0.000241 s⁻¹"
>>> experimental_result("G40A C67A")
"0.000262 s⁻¹"
>>> experimental_result("G7U G35C")
"< 1e-05 s⁻¹"
>>> experimental_result("A33C G37C")
"< 1e-05 s⁻¹"
>>> experimental_result("A6U A15G C19A A33C C68G")
"< 1e-05 s⁻¹"
>>> experimental_result("A12U A48C C58A")
"< 1e-05 s⁻¹"
>>> experimental_result("A15C A42G U56A G60U")
"< 1e-05 s⁻¹"
>>> experimental_result("A36U G63C C67U")
"< 1e-05 s⁻¹"
>>> experimental_result("G59U G66C")
"< 1e-05 s⁻¹"
>>> experimental_result("C8U C11U A12C A48G G62A C67U")
"< 1e-05 s⁻¹"
>>> experimental_result("C11G U55A C61A U69A C71G")
"0.000284 s⁻¹"
>>> experimental_result("G41U C58G")
"< 1e-05 s⁻¹"
>>> experimental_result("A39C A53U A64G")
"0.00188 s⁻¹"
>>> experimental_result("G13C A14U")
"0.000186 s⁻¹"
>>> experimental_result("C16G G43A A48U")
"< 1e-05 s⁻¹"
>>> experimental_result("G35U C50A")
"4.74e-05 s⁻¹"
>>> experimental_result("G7U G35U G37C U46C C68A")
"< 1e-05 s⁻¹"
>>> experimental_result("U30G A36G")
"< 1e-05 s⁻¹"
>>> experimental_result("A14U U46A A52U C58A")
"< 1e-05 s⁻¹"
>>> experimental_result("C8G A14U A39G")
"< 1e-05 s⁻¹"
>>> experimental_result("A39C G44A")
"5.47e-05 s⁻¹"
>>> experimental_result("C8G U45C")
"< 1e-05 s⁻¹"
>>> experimental_result("A15C C16U U45A")
"0.00147 s⁻¹"
>>> experimental_result("G29C C58G")
"6.23e-05 s⁻¹"
